B1: CDC25A (parent)
chain: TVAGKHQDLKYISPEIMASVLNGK

Variants of: B1
Assay: protein stability index of a GFP-peptide fusion (GPS, HEK-293T) (PSI 1-6); higher = more stable;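 note: lentivirally expressed fusions sorted by FACS into six bins by GFP to DsRed ratio, PSI derived from sequencing read proportions per bin multiplied by bin number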
Conditions: c terminus: a fixed tail appended
protein stability index reference
API doc: respond with a numeric literal and nothing else, no unit.

Illustrative cases are given below, each with its answer.
QUERY: Hello, please tell me recorded protein stability index for this one: `L21M`
RESULT: 3.4

QUERY: Please give the documented protein stability index of `I12E`
RESULT: 3.83

QUERY: Give protein stability index for `K10D`
RESULT: 3.85

QUERY: State its protein stability index: `Q7G`
RESULT: 3.08

Now consider the entry below.
QUERY: Consider the variant `A18L` . State its measured protein stability index.
RESULT: 2.53
